FYI, the data here is from PubChem BioAssay (EPA / NIEHS).

test: ATG_CRE_CIS: Attagene CIS-FACTORIAL HepG2 Assay for human cAMP Responsive Element (CRE) binding protein 3 (AID 2282926); conditions: HepG2 CRE cis-reporter, Attagene multiplexed mRNA; actives raise or lower the signal
Activity calls are given as the source filed them. The calls were made as follows: active = hit-call score of the fitted dose curve at least 0.9, where 1 is the maximum; inactive = score below 0.9.
assay-readout: outcome

Observe how each entry below is paired with its result.
CS(=O)(=O)c1ccc(Cl)cc1: inactive
CCN(CCN)c1cccc(C)c1: inactive
CN(c1nccc(=O)[nH]1)C1CCN(c2nc3ccccc3n2Cc2ccc(F)cc2)CC1: inactive
NCc1ccco1: inactive
CCCC(C)=O: inactive
Cc1[nH]c(=O)c(C#N)cc1-c1ccncc1: inactive

Continue with the next compound.
Qu. Dear colleague, I am looking for the recorded outcome of the following compound: CC1(C)O[C@@H]2[C@@H](CO[C@@]3(COS(N)(=O)=O)OC(C)(C)O[C@@H]23)O1
Ans. inactive
